test system: Candida albicans; test: Ratio of MFC99.9 to MIC90 for Candida albicans 3471 at 35 degC after 48 hrs by CLSI method based antimicrobial assay; assay type: functional
Recorded Ratio values for a group of molecules are listed next.

Known Ratio results, listed for orientation:
1. Clc1ccc(/C(Cn2nnc3ccccc32)=N\Nc2nc(-c3ccc(Br)cc3)cs2)cc1	4
2. Fc1ccc(-c2csc(N/N=C(/Cn3nnc4ccccc43)c3cc(C(F)(F)F)cc(C(F)(F)F)c3)n2)cc1	4
3. Fc1ccc(/C(Cn2nnc3ccccc32)=N\Nc2nc(-c3ccc(Cl)cc3)cs2)cc1	4

Given the entry Fc1ccc(-c2csc(N/N=C(/Cn3nnc4ccccc43)c3ccc(Cl)cc3)n2)cc1 , report its measured Ratio.
4

Moving on to the next molecule: O=[N+]([O-])c1ccc(/C(Cn2nnc3ccccc32)=N\Nc2nc(-c3ccc(Br)cc3)cs2)cc1
2

Moving on to the next molecule: Fc1ccc(/C(Cn2nnc3ccccc32)=N\Nc2nc(-c3ccc(F)cc3)cs2)cc1
2

* * *

system: Staphylococcus aureus; assay: Antimicrobial activity against Staphylococcus aureus 2079 at 35 degC after 18 to 24 hrs by NCCLS method based antimicrobial assay; format: functional; settings: read-out: MBC99.9
Recorded MBC values for a group of molecules are listed next.
Express your answer in µg/mL, writing the number without its unit.

1) O=C(N[C@H](CO)[C@H](O)c1ccc([N+](=O)[O-])cc1)C(Cl)Cl [CHLORAMPHENICOL]	32
2) Fc1ccc(/C(Cn2nnc3ccccc32)=N\Nc2nc(-c3ccc(F)cc3)cs2)cc1	128
3) Clc1ccc(/C(Cn2nnc3ccccc32)=N\Nc2nc(-c3ccc(Cl)cc3)cs2)cc1	32

Which MBC is reported with Staphylococcus aureus for this entry: Brc1ccc(/C(Cn2nnc3ccccc32)=N\Nc2nc(-c3ccc(Br)cc3)cs2)cc1 ?
64

Moving on to the next molecule: Fc1ccc(/C(Cn2nnc3ccccc32)=N\Nc2nc(-c3ccc(Br)cc3)cs2)cc1
128

Moving on to the next molecule: O=[N+]([O-])c1ccc(/C(Cn2nnc3ccccc32)=N\Nc2nc(-c3ccc(F)cc3)cs2)cc1
64

Moving on to the next molecule: FC(F)(F)c1cc(-c2csc(N/N=C(/Cn3nnc4ccccc43)c3ccc(Br)cc3)n2)cc(C(F)(F)F)c1
64

Moving on to the next molecule: O=[N+]([O-])c1ccc(/C(Cn2nnc3ccccc32)=N\Nc2nc(-c3ccc(Br)cc3)cs2)cc1
128

Moving on to the next molecule: Fc1ccc(-c2csc(N/N=C(/Cn3nnc4ccccc43)c3ccc(Cl)cc3)n2)cc1
32

Moving on to the next molecule: Fc1ccc(/C(Cn2nnc3ccccc32)=N\Nc2nc(-c3ccc(Cl)cc3)cs2)cc1
32

Moving on to the next molecule: Fc1ccc(/C(Cn2nnc3ccccc32)=N\Nc2nc(-c3cc(C(F)(F)F)cc(C(F)(F)F)c3)cs2)cc1
128

Moving on to the next molecule: Fc1ccc(-c2csc(N/N=C(/Cn3nnc4ccccc43)c3cc(C(F)(F)F)cc(C(F)(F)F)c3)n2)cc1
64

* * *

tested on: Staphylococcus aureus; assay: Antimicrobial activity against Staphylococcus aureus 2079 at 128 ug/disc at 35 degC after 24 hrs by agar-well diffusion assay; format: functional; conditions: Staphylococcus aureus, 2079, 24 h; read-out: DIZ
Measurement Label: zone of inhibition at 128 µg/disc (mm)
Express your answer in mm, writing the number without its unit.

1. FC(F)(F)c1cc(-c2csc(N/N=C(/Cn3nnc4ccccc43)c3ccc(Br)cc3)n2)cc(C(F)(F)F)c1	22.1
2. Fc1ccc(/C(Cn2nnc3ccccc32)=N\Nc2nc(-c3ccc(Br)cc3)cs2)cc1	20.9

Turning now to a further record.
Given the entry O=C(N[C@H](CO)[C@H](O)c1ccc([N+](=O)[O-])cc1)C(Cl)Cl [CHLORAMPHENICOL] , report its measured zone of inhibition at 128 µg/disc.
31.4

Cited source: ChEMBL document CHEMBL2021913
